assay: Stability test in buffer (pH 7.4); type: physicochemical; details: phosphate buffer/acetonitrile 7:3; 60 minutes at 37°C, 100 mM potassium phosphate buffer (pH 7.4) and acetonitrile 7:3 (v/v), LC/MS; read-out: Buf. remaining rate (%/60min)
parameter: remaining at 1 h (%)

[[record]]
compound = "COC(=O)c1ccc(OC(=O)CCCc2ccc(NC(=O)c3ccccc3-c3ccc(C(F)(F)F)cc3)c(C(=O)N(C)C)c2)cc1C"
parameter = "remaining at 1 h"
reported = 104

[[record]]
compound = "CN(C)C(=O)c1cc(CCCC(=O)Oc2ccc(C(=O)OCCN3CCCC3=O)cc2)ccc1NC(=O)c1ccccc1-c1ccc(C(F)(F)F)cc1"
parameter = "remaining at 1 h"
reported = 105

[[record]]
compound = "COC(=O)c1ccc(OC(=O)CCCc2ccc(NC(=O)c3ccc(C)nc3-c3ccc(C(F)(F)F)cc3)c(C(=O)N(C)C)c2)c(C(=O)OC)c1"
parameter = "remaining at 1 h"
reported = 104

[[record]]
compound = "COC(=O)c1cc(C)c(OC(=O)CCCc2ccc(NC(=O)c3ccc(C)nc3-c3ccc(C(F)(F)F)cc3)c(C(=O)N(C)C)c2)c(C(=O)OC)c1"
parameter = "remaining at 1 h"
reported = 102

[[record]]
compound = "CN(C)C(=O)c1cc(CCCC(=O)Oc2ccc(C(=O)OCc3cccs3)cc2)ccc1NC(=O)c1ccccc1-c1ccc(C(F)(F)F)cc1"
parameter = "remaining at 1 h"
reported = 99

[[record]]
compound = "CN(C)C(=O)c1cc(CCCC(=O)Oc2ccc(C(=O)OC3CCCc4ccccc43)cc2)ccc1NC(=O)c1ccccc1-c1ccc(C(F)(F)F)cc1 (stereo not drawn)"
parameter = "remaining at 1 h"
reported = 98


* * *

assay: Metabolic stability test in plasma; format: in vitro ADME, human; details: unchanged form after 10 minutes at 37°C in human plasma, LC/MS; read-out: Remaining rate in human plasma (%/10min)
parameter: remaining at 10 min (%)

A. CCOC(=O)c1cc(OC)c(OC(=O)CCCc2ccc(NC(=O)c3ccc(C)nc3-c3ccc(C(F)(F)F)cc3)c(C(=O)N(C)C)c2)c(C(=O)OC)c1
B. CN(C)C(=O)c1cc(CCCC(=O)Oc2ccc(C(=O)OCCCO)cc2)ccc1NC(=O)c1ccccc1-c1ccc(C(F)(F)F)cc1
Prompt: Select the item with the higher value of remaining at 10 min from the options A and B listed. Lab note: record the label of whichever item you select.
Completion: B
(B: 71%, A: 0%)

* * *

experiment: Metabolic stability test in liver S9; type: in vitro ADME; details: pH 7.4; unchanged form after 60 minutes at 37°C, human liver S9 2 mg protein/mL, LC/MS; read-out: Remaining rate in human liver S9 (%/60min)
parameter: remaining at 1 h (%)

// known answers, use as guide
[[record]]
structure_as_smiles = "COC(=O)c1ccc(-c2nc(C)ccc2C(=O)Nc2ccc(CCCC(=O)Oc3c(C)cc(C(=O)OC)cc3C(=O)OC)cc2C(=O)N(C)C)cc1"
display_unit = "%"
reported = 0

[[record]]
structure_as_smiles = "Cc1cccc(COC(=O)c2ccc(OC(=O)CCCc3ccc(NC(=O)c4ccccc4-c4ccc(C(F)(F)F)cc4)c(C(=O)N(C)C)c3)cc2)n1"
display_unit = "%"
reported = 0

[[record]]
structure_as_smiles = "COC(=O)c1ccc(OC(=O)CCCc2ccc(NC(=O)c3ccccc3-c3ccc(C(F)(F)F)cc3)c(C(=O)N(C)C)c2)c(C(F)(F)F)c1"
display_unit = "%"
reported = 0

[[record]]
structure_as_smiles = "COC(=O)c1ccc(OC(=O)C2CCN(c3ccc(NC(=O)c4ccccc4-c4ccc(C(F)(F)F)cc4)c(C(=O)N(C)C)c3)CC2)c(F)c1"
display_unit = "%"
reported = 0


A. COC(=O)c1ccc(OC(=O)CCCc2ccc(NC(=O)c3ccc(C)nc3-c3ccc(C(F)(F)F)cc3)c(C(=O)N(C)C)c2)c(C(=O)OC)c1
B. CCOC(=O)c1cc(OC)c(OC(=O)CCCc2ccc(NC(=O)c3ccc(C)nc3-c3ccc(C(F)(F)F)cc3)c(C(=O)N(C)C)c2)c(C(=O)OC)c1
Prompt: Select the item with the higher value of remaining at 1 h from the options A and B listed. Lab note: record the label of whichever item you select.
Completion: B
(B: 2%, A: 0%)
